experiment: collision cross section of modified peptide (TIMS, N2, iRT-aligned); higher = larger / more extended gas-phase ion; settings: charge state: 2; modification: Crotonyl
Tick Yes if collision cross section is 400 Å² or greater. Tick No if collision cross section is less than 400 Å².

For orientation, consider the following solved cases.
sequence	class.name
DAEAAEATAEGALKAEK [_DAEAAEATAEGALK(Crotonyl)AEK_]	Yes
IVFSGNLFQHQEDSKK [_IVFSGNLFQHQEDSK(Crotonyl)K_]	Yes
DLSTVEALQNLKNLK [_DLSTVEALQNLK(Crotonyl)NLK_]	Yes
LAEEENKAK [_LAEEENK(Crotonyl)AK_]	No
AGPNASIISLKSDK [_AGPNASIISLK(Crotonyl)SDK_]	Yes

Exam item: Test whether the sequence TEVLSPNSKVESK [_TEVLSPNSK(Crotonyl)VESK_] records collision cross section of 400 Å² or higher.
Marked response: Yes

Exam item: For this sequence, is measured collision cross section 400 Å² or higher? ITGKNQVTATK [_ITGK(Crotonyl)NQVTATK_]
Marked response: No

Exam item: Determine whether this sequence has collision cross section no lower than 400 Å²: ITLSKHQNVQLPR [_ITLSK(Crotonyl)HQNVQLPR_]
Marked response: Yes

Exam item: Form field: collision cross section at least 400 Å²? Entry: SDDESSQKDIK [_SDDESSQK(Crotonyl)DIK_]
Marked response: No

Exam item: Can VSPASSVDSNIPSSQGYKK [_VSPASSVDSNIPSSQGYK(Crotonyl)K_] be said to have collision cross section at or above 400 Å²?
Marked response: Yes

====

Below, each entry is listed alongside its reported collision cross section.
assay: collision cross section of modified peptide (TIMS, N2, iRT-aligned); higher = larger / more extended gas-phase ion; details: charge state: 3; modification: Trimethyl (K)
Write the value in Å² as a bare number.

sequence	recorded.measurement
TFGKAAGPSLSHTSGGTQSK [_TFGK(Trimethyl (K))AAGPSLSHTSGGTQSK_]	559.57
ANLEKAQAELVGTADEATR [_ANLEK(Trimethyl (K))AQAELVGTADEATR_]	528.43
IVFSGNLFQHQEDSKK [_IVFSGNLFQHQEDSK(Trimethyl (K))K_]	536.81
SGNLTEDDKHNNAK [_SGNLTEDDK(Trimethyl (K))HNNAK_]	469.66
GAEKTEVAEPR [_GAEK(Trimethyl (K))TEVAEPR_]	447.07

Now look at this entry.
Exam item: Entry under review: LEQVEKELLR [_LEQVEK(Trimethyl (K))ELLR_] . Reported collision cross section?
Marked response: 446.8

====

assay: collision cross section of modified peptide (TIMS, N2, iRT-aligned); higher = larger / more extended gas-phase ion; details: charge state: 2; modification: Succinyl
observed.property: collision cross section (Å²)
Entry rule: numbers only, all in Å².

Please review the entries below; each comes with its answer.
sequence	collision cross section (Å²)
PANEKATDDYHYEK [_PANEK(Succinyl)ATDDYHYEK_]	446.9
DSSPTTNSKLSALQR [_DSSPTTNSK(Succinyl)LSALQR_]	428.81

Exam item: Reported collision cross section for ITESVAETAQTIKK [_ITESVAETAQTIK(Succinyl)K_] : what is it?
Marked response: 424.69

Exam item: Entry LEKTIDDLEEK [_LEK(Succinyl)TIDDLEEK_] : reported collision cross section = ?
Marked response: 408.25

Exam item: Quick one: collision cross section of GSLEKGSPEDK [_GSLEK(Succinyl)GSPEDK_] ?
Marked response: 366.43

Exam item: Suppose we examine the sequence LQLEIDQKK [_LQLEIDQK(Succinyl)K_] ; what collision cross section value has been reported?
Marked response: 370.18

====

assay: collision cross section of modified peptide (TIMS, N2, iRT-aligned); higher = larger / more extended gas-phase ion; settings: charge state: 2; modification: hydroxyisobutyryl
observed.property: collision cross section (Å²)
Value expressed in Å²; do not type the unit.

sequence	collision cross section [Å²]
VNIGQGSHPQKVK [_VNIGQGSHPQK(hydroxyisobutyryl)VK_]	435.4
SLEEEGAAHSGKR [_SLEEEGAAHSGK(hydroxyisobutyryl)R_]	421.1
DHLSDKESK [_DHLSDK(hydroxyisobutyryl)ESK_]	357.61
DKALPLEAEVAPVK [_DK(hydroxyisobutyryl)ALPLEAEVAPVK_]	422.26
GADFLVTEVENGGSLGSKK [_GADFLVTEVENGGSLGSK(hydroxyisobutyryl)K_]	478.5
VGLQVVAVKAPGFGDNR [_VGLQVVAVK(hydroxyisobutyryl)APGFGDNR_]	453.58
DDSFLGKLGGTLAR [_DDSFLGK(hydroxyisobutyryl)LGGTLAR_]	418.74
LQEKVESAQSEQK [_LQEK(hydroxyisobutyryl)VESAQSEQK_]	422.92

Exam item: # get_value(readout='collision cross section', item= TQDQISNIKYHEEFEK [_TQDQISNIK(hydroxyisobutyryl)YHEEFEK_] )
Marked response: 492.05

Exam item: What value of measured collision cross section is listed for GTISAPGKVVTAAAQAK [_GTISAPGK(hydroxyisobutyryl)VVTAAAQAK_] ?
Marked response: 447.84

====

collision cross section values by entry
assay: collision cross section of modified peptide (TIMS, N2, iRT-aligned); higher = larger / more extended gas-phase ion; conditions: charge state: 2; modification: Glutarylation
Write the answer as a number in Å², unit excluded.

Take a look at these entries with their results.
sequence	collision cross section (Å²)
ALASIDSKLNQAK [_ALASIDSK(Gluratylation)LNQAK_]	406.86
DASTLQSQKAEGTGDAK [_DASTLQSQK(Gluratylation)AEGTGDAK_]	440.54
GTITVSAQELKDNR [_GTITVSAQELK(Gluratylation)DNR_]	422.99
ANEKTESSSAQQVAVSR [_ANEK(Gluratylation)TESSSAQQVAVSR_]	449.31
PANEKATDDYHYEK [_PANEK(Gluratylation)ATDDYHYEK_]	448.09

Exam item: Reported collision cross section, sequence LLFSNTAAQKLR [_LLFSNTAAQK(Gluratylation)LR_] : ____
Marked response: 406.85

Exam item: Entry VGTASVLQPVKK [_VGTASVLQPVK(Gluratylation)K_] : reported collision cross section = ?
Marked response: 391.34

Exam item: Would you mind telling me what collision cross section value was observed for ILDLKTGTVK [_ILDLK(Gluratylation)TGTVK_] ?
Marked response: 368.56

Exam item: Param item = SGNLTEDDKHNNAK [_SGNLTEDDK(Gluratylation)HNNAK_] ; retrieve measured collision cross section.
Marked response: 428.34

Exam item: Give its collision cross section value. Item: VDIDAPDVSIEGPDAKLK [_VDIDAPDVSIEGPDAK(Gluratylation)LK_]
Marked response: 469.43

====

# Lookup of reported collision cross section keyed by entry
test: collision cross section of unmodified peptide (TIMS, N2, iRT-aligned); higher = larger / more extended gas-phase ion; conditions: charge state: 2
Your answer is read as Å², so omit the unit and give the number.

Observe how each entry below is paired with its result.
substance	uom	recorded.measurement
TSAVSSQANSQPPVQVSVK	Å²	457.25
SSDLTDRVK	Å²	344.22
VNIGQGSHPQKVK	Å²	416.89
GFPGAPGLPGLK	Å²	357.61
PGNSGIR	Å²	278.56

Exam item: GET /values?readout=collision cross section&item= SALAAAQTQVAEYK
Marked response: 422.48

Exam item: GET /values?readout=collision cross section&item= PLRAASPFR
Marked response: 352.16

Exam item: Given the entry SGFGKFER , report its measured collision cross section.
Marked response: 339.56

Exam item: # lookup: collision cross section of PPGFSPFR
Marked response: 328.84

Exam item: Item PSVSTKLISK has what recorded collision cross section?
Marked response: 360.6

====

Item-by-item account of collision cross section
test: collision cross section of modified peptide (TIMS, N2, iRT-aligned); higher = larger / more extended gas-phase ion; conditions: charge state: 2; modification: Methyl (K)
± gives the standard deviation.

Examples from the recorded data:
sequence	observed.property	recorded.measurement
ITGKNQVTATK [_ITGK(Methyl (K))NQVTATK_]	collision cross section	372.71 ± 1.1 Å²
GEVGAGAGPGAQAGPSAKR [_GEVGAGAGPGAQAGPSAK(Methyl (K))R_]	collision cross section	422.57 ± 1.8 Å²

Exam item: Can you share its collision cross section? I mean this sequence: ITLSKHQNVQLPR [_ITLSK(Methyl (K))HQNVQLPR_]
Marked response: 432.38 Å²

Exam item: Can you share its collision cross section? I mean this sequence: PSVSTKLISK [_PSVSTK(Methyl (K))LISK_]
Marked response: 356.57 ± 0.35 Å²

Exam item: Data request, read-out collision cross section, for HELQANCYEEVKDR [_HELQANCYEEVK(Methyl (K))DR_]
Marked response: 444.71 Å²

Exam item: Name the reported collision cross section value associated with the sequence VGTASVLQPVKK [_VGTASVLQPVK(Methyl (K))K_]
Marked response: 392.83 ± 0.43 Å²

Exam item: Could you tell me which collision cross section is on file for TVSKVDDFLANEAK [_TVSK(Methyl (K))VDDFLANEAK_] ?
Marked response: 413.26 ± 1.6 Å²
